Listing of recorded pIC50 by entry.
target: HCV polymerase (Hepatitis C virus genotype 1b); construct: a region encoding NS5B (591 amino acids; J Virol 1991 Mar, 65(3), 1105-13) was amplified by PCR; 6 His (N); made in house; host or cells: Escherichia coli; assay: biochemical; settings: read-out: HCV polymerase inhibitory activity IC50
Sequence (P26663 2420-3010): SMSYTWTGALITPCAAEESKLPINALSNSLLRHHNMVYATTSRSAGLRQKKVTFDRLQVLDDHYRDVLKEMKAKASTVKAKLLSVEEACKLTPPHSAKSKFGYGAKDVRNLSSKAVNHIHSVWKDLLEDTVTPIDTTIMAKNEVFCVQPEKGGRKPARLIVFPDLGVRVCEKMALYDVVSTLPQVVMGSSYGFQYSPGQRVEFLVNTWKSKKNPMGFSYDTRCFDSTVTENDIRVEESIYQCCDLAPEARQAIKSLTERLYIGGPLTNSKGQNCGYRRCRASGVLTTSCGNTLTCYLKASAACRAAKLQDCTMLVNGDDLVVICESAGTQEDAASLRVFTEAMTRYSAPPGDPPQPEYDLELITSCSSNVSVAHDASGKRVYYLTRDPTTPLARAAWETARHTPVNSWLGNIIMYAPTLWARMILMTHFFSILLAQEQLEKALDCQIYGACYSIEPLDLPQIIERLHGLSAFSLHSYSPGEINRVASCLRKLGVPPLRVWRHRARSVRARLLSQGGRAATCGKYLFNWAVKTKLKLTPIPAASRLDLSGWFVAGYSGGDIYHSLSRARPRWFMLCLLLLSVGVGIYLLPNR
Where a name gives a salt, the structure may show the parent alone.
Please treat pIC50 as minus the base-10 logarithm of the molar concentration.

Data point: Cc1noc(-c2ccc(-c3ccc(Cl)cc3)c(COc3ccc(-c4nc5cc(C(=O)O)ccc5n4C4CCCCC4)cc3)c2)n1 [Example 349, hydrochloride] ; pIC50 = 7.68

Data point: N/C(=N\O)c1ccc(-c2ccc(Cl)cc2)c(COc2ccc(-c3nc4cc(C(=O)O)ccc4n3C3CCCCC3)c(F)c2)c1 [Example 373, dihydrochloride] ; pIC50 = 7.89

Data point: CN(C)S(=O)(=O)c1ccc(-c2ccc(Cl)cc2)c(COc2ccc(-c3nc4cc(C(=O)O)ccc4n3C3CCCCC3)cc2)c1 [Example 279, hydrochloride] ; pIC50 = 7.77

Data point: CC(C)NC(=O)c1ccc(-c2cc(Cl)cc(Cl)c2)c(COc2ccc(-c3nc4cc(C(=O)O)ccc4n3C3CCCCC3)c(F)c2)c1 [Example 398, hydrochloride] ; pIC50 = 7.11

Data point: CN(C)C(=O)c1ccc(-c2ccc(C(=O)N(C)C)cc2COc2ccc(-c3nc4cc(C(=O)O)ccc4n3C3CCCCC3)cc2)cc1 [Example 273] ; pIC50 = 7.39
